- Assay Overview: Biodistribution of radiometal-DOTA-BBN conjugates in CF1 normal mice
- Measurement Context: 1 hour post-injection
What Avg % ID/gm, Pancreas was measured for each of the following?
Kindly answer with a numeric value in % ID/gm, unit omitted.

Please fill in: Avg % ID/gm, Pancreas reported for CSCC[C@H](NC(=O)[C@H](CC(C)C)NC(=O)[C@H](Cc1cnc[nH]1)NC(=O)CNC(=O)[C@@H](NC(=O)[C@H](C)NC(=O)[C@H](Cc1c[nH]c2ccccc12)NC(=O)[C@H](CCC(N)=O)NC(=O)CN1CCN(CC(=O)O)CCN(CC(=O)O)CCN(CC(=O)O)CC1)C(C)C)C(N)=O [149Pm-DOTA-0-BBN[7-14]NH2] = 0.00

Please fill in: Avg % ID/gm, Pancreas reported for CSCC[C@H](NC(=O)[C@H](CC(C)C)NC(=O)[C@H](Cc1cnc[nH]1)NC(=O)CNC(=O)[C@@H](NC(=O)[C@H](C)NC(=O)[C@H](Cc1c[nH]c2ccccc12)NC(=O)[C@H](CCC(N)=O)NC(=O)CCNC(=O)CN1CCN(CC(=O)O)CCN(CC(=O)O)CCN(CC(=O)O)CC1)C(C)C)C(N)=O [111In-DOTA-β-Ala-BBN[7-14]NH2] [metal not drawn] = 4.92

Please fill in: Avg % ID/gm, Pancreas reported for CSCC[C@H](NC(=O)[C@H](CC(C)C)NC(=O)[C@H](Cc1c[nH]cn1)NC(=O)CNC(=O)[C@@H](NC(=O)[C@H](C)NC(=O)[C@H](Cc1c[nH]c2ccccc12)NC(=O)[C@H](CCC(N)=O)NC(=O)CCCCNC(=O)CN1CCN(CC(=O)O)CCN(CC(=O)O)CCN(CC(=O)O)CC1)C(C)C)C(N)=O [149Pm-DOTA-5-Ava-BBN[7-14]NH2] = 22.1
